# Target desc: α-glucosidase
# Assay explanation: α-glucosidase inhibition assay (PNPG substrate)
# Protocol conditions: pH 6.8, 37 °C, 10 min, 0.01 M PNPG substrate, 1 U/mL enzyme; means ± SD of three independent replicates; read-out: α-Glucosidase Inhibition Contstant (IC50)
# Method: The a-glucosidase inhibition assay was performed according to a slightly modified method of Pierre et al.. α-Glucosidase was purchased from Sigma (San Francisco, CA, USA, No. M0035-15). The inhibition was measured spectrophotometrically at pH 6.8 and at 37 °C for 10 min, using 0.01 M p-nitrophenyl a-D-glucopyranoside (PNPG) from Sigma (No. M0103) as a substrate and 1 U/mL of enzyme, in 0.067 M KH2PO4-Na2HPO4 buffer. […]
Readout label: IC50 (µM)

Compound	Target desc	IC50 (µM)
CCCCCCCCCC(=O)OC1C(OC2C(C)OC3OC4C(OC(CCCCC)CCCCCCCCCC(=O)OC3C2O)OC(CO)C(O)C4O)OC(C)C(OC2OC(C)C(OC(=O)C(C)CC)C(OC(=O)C=Cc3ccccc3)C2O)C1OC1OC(C)C(O)C(O)C1O (stereo not shown) [Compound 4, Cairicoside IV]	α-glucosidase	28.9
CCCCCC1CCCCCCCCCC(=O)OC2C(OC(C)C(OC3OC(C)C(OC4OC(C)C(OC(=O)C(C)CC)C(OC(=O)C=Cc5ccccc5)C4O)C(OC4OC(C)C(O)C(O)C4O)C3OC(=O)CCC)C2O)OC2C(O1)OC(CO)C(O)C2O (stereo not shown) [Compound 2, Cairicoside II]	α-glucosidase	26.2
CCCCCC1CCCCCCCCCC(=O)OC2C(OC(C)C(OC3OC(C)C(OC4OC(C)C(OC(=O)C(C)CC)C(OC(=O)C=Cc5ccccc5)C4O)C(OC4OC(C)C(O)C(O)C4O)C3OC(=O)C(C)CC)C2O)OC2C(O1)OC(CO)C(O)C2O (stereo not shown) [Compound 1]	α-glucosidase	21.4
CCCCCCCC(=O)OC1C(OC2C(C)OC3OC4C(OC(CCCCC)CCCCCCCCCC(=O)OC3C2O)OC(CO)C(O)C4O)OC(C)C(OC2OC(C)C(OC(=O)C(C)CC)C(OC(=O)C=Cc3ccccc3)C2O)C1OC1OC(C)C(O)C(O)C1O (stereo not shown) [Compound 3, Cairicoside III]	α-glucosidase	30.4
